# measurement target: FLT3 K663Q (Homo sapiens, UniProt P36888, K663Q)
# Sequence (P36888 27-993 K663Q): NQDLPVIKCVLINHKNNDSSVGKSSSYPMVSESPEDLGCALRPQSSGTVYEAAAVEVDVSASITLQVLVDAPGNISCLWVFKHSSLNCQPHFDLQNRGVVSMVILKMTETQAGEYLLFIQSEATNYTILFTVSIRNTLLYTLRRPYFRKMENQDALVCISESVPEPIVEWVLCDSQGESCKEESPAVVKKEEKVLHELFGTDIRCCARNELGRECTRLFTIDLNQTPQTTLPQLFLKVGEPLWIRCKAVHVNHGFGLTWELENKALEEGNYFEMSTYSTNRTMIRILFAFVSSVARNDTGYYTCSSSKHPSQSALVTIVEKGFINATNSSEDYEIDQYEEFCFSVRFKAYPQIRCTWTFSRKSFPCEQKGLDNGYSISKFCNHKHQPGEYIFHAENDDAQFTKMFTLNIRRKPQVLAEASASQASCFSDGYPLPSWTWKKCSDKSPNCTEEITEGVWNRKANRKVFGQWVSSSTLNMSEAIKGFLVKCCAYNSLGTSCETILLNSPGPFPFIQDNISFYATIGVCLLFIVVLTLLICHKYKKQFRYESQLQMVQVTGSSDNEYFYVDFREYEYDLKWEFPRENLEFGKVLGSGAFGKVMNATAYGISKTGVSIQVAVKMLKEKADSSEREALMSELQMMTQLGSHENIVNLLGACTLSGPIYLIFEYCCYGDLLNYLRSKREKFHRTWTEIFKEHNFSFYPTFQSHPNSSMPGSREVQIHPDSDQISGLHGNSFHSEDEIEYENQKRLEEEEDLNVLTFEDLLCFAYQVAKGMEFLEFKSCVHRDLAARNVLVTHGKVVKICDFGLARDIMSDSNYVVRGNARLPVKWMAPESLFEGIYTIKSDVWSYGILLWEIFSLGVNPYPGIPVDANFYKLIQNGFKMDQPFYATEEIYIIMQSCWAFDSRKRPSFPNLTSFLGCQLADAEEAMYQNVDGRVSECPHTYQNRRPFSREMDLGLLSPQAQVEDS
# assay remarks: DiscoverX KINOMEscan competition binding, FLT3 K663Q
Quick reference: Kd of the listed items.
observation type: Kd (nM)

> print(dat)
                                smiles.data  observation.type  quantitative.readout
1  FC(F)c1cn2c(-c3cccc(N[C@H]4CNCC[C@@H]4F)n3)cnc2cn1                Kd                  0.59
2  CC(C)(O)c1cn2c(-c3cccc(N[C@H]4CNCC[C@@H]4F)n3)cnc2cn1                Kd                   2.4
3  FC(F)(F)C1(c2cn3c(-c4cccc(N[C@@H]5CCNC5)n4)cnc3cn2)CC1                Kd                  0.45
4  CC1(c2cn3c(-c4cccc(N[C@@H]5CCNC5)n4)cnc3cn2)CC1                Kd                  0.22
